Would you mind telling me the reported pEC50 of each entry?
# Tested Target: TYK2 (aa 871-1187, catalytic domain, GST-tag) (Homo sapiens)
# Construct: JAK1 (aa 850-1154) and TYK2 (aa 871-1187) are expressed with an N-terminally fused GST-tag; GST (N); purchased Carna Biosciences, Inc; host or cells: baculovirus expression system
# Method: JAK kinase assay (HTRF, phosphorylation of TK substrate-biotin), TYK2
# Format: biochemical
# Conditions: HTRF assay, ATP at Km (13 μM); read-out: TYK2 kinase inhibitory activity (EC50 indicator)
pEC50: −log10 of the molar value.

// below: answered molecules
N#Cc1ccccc1C(=O)N1[C@@H]2CC[C@@H]1CN(c1ncnc3[nH]ccc13)C2 [Example 249]    < 6.30
O=C(c1ccncc1)N1CCN(c2ccnc3[nH]ccc23)CC12CC2 [Example 224]    < 6.30
CS(=O)(=O)c1cc(C(=O)N2CCN(c3ncnc4[nH]ccc34)CC23CC3)ccc1F [Example 366]    < 6.30
O=C(c1ccncc1)N1[C@@H]2CC[C@@H]1CN(c1ncnc3[nH]ccc13)C2 [Example 242]    < 6.30
COc1cnc2[nH]ccc2c1N1CCN(C(=O)c2ccc(-c3ccccc3)s2)C2(CC2)C1 [Example 290]    < 6.30

Would you mind giving pEC50 for every molecule in the list below?
1. N#CCc1ccccc1C(=O)N1CCN(c2ncnc3[nH]ccc23)CC12CC2 [Example 300]
2. Cc1ccc2sc(C(=O)N3CCN(c4ncnc5[nH]ccc45)CC34CC4)cc2c1 [Example 297]
3. O=C(c1cccnc1)N1CCN(c2ccnc3[nH]ccc23)CC12CC2 [Example 223]

## Output
["6.30 to 7.00", "6.30 to 7.00", "< 6.30"]

----------
# Tested Target: JAK1 (aa 850-1154, catalytic domain, GST-tag) (Homo sapiens, UniProt P23458)
# Construct: JAK1 (aa 850-1154) and TYK2 (aa 871-1187) are expressed with an N-terminally fused GST-tag; GST (N); purchased Carna Biosciences, Inc; host or cells: baculovirus expression system
# Sequence (P23458 850-1154): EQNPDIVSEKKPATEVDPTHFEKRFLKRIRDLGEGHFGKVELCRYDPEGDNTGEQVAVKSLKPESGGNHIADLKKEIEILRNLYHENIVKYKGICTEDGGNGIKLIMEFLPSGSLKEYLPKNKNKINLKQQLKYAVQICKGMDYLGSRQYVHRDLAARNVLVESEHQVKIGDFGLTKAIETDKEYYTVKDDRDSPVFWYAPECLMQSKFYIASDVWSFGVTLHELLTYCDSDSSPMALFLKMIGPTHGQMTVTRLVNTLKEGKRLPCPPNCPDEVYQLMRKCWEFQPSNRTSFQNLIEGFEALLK
# Method: JAK kinase assay (HTRF, phosphorylation of TK substrate-biotin), JAK1
# Format: biochemical
# Conditions: ATP at Km (7 μM); read-out: JAK1 kinase inhibitory activity (EC50 indicator)
pEC50: −log10 of the molar value.
Attribute Measured: pEC50

Would you mind giving pEC50 for every molecule in the list below?
1. COC(=O)c1cc2c(N3CCN(C(=O)Cc4ccc(C#N)cc4)C4(CC4)C3)ncnc2[nH]1 [Example 124]
2. O=C(c1ncco1)N1[C@@H]2CC[C@@H]1CN(c1ncnc3[nH]ccc13)C2 [Example 177]

## Output
< 6.30
6.30 to 7.00

Would you mind giving pEC50 for every molecule in the list below?
1. O=C(c1cccnc1)N1CCN(c2ncnc3[nH]ccc23)CC12CC2 [Example 42]
2. O=C(C1CCCO1)N1CCN(c2ncnc3[nH]ccc23)CC12CC2 (stereo not drawn) [Example 22]

## Output
["> 7.00", "6.30 to 7.00"]

Would you mind giving pEC50 for every molecule in the list below?
1. Cc1cc2[nH]c(C(=O)N3[C@@H]4CC[C@H]3CN(c3ncnc5[nH]ccc35)C4)cc2cc1F [Example 110]
2. O=C(c1ccc2cc[nH]c2c1)N1CCN(c2ncnc3[nH]ccc23)CC12CC2 [Example 36]
3. O=C(c1cc2ccccc2s1)N1CCN(c2ccnc3[nH]ccc23)CC12CC2 [Example 82]
4. CC(C#N)c1cccc(C(=O)N2CCN(c3ncnc4[nH]ccc34)CC23CC3)c1 (stereo not drawn) [Example 8]
5. O=C(Cc1cccs1)N1[C@@H]2CC[C@H]1CN(c1ncnc3[nH]ccc13)C2 [Example 109]
6. Cn1c(C(=O)N2C3CCC2CN(c2ncnc4[nH]ccc24)C3)ccc1S(N)(=O)=O [Example 141]
7. N#CC1(C(=O)N2CCN(c3ccnc4[nH]ccc34)CC23CC3)CC1 [Example 117]

## Output
> 7.00
6.30 to 7.00
6.30 to 7.00
> 7.00
> 7.00
> 7.00
6.30 to 7.00

Would you mind giving pEC50 for every molecule in the list below?
1. COC(=O)c1cc2c(N3CCN(C(=O)Cc4ccc(CC#N)cc4)C4(CC4)C3)ncnc2[nH]1 [Example 122]
2. O=C(c1cccnc1)N1[C@@H]2CC[C@H]1CN(c1ncnc3[nH]ccc13)C2 [Example 57]
3. N#CCCC(=O)N1[C@@H]2CC[C@@H]1CN(c1ncnc3[nH]ccc13)C2 [Example 182]
4. O=C(c1cccc(C(F)(F)F)c1)N1CCN(c2ncnc3[nH]ccc23)CC12CC2 [Example 20]

## Output
< 6.30
6.30 to 7.00
> 7.00
> 7.00

----------
Would you mind telling me the reported EC50 of each entry?
# Tested Target: TYK2 (aa 871-1187, catalytic domain, GST-tag) (Homo sapiens)
# Construct: JAK1 (aa 850-1154) and TYK2 (aa 871-1187) are expressed with an N-terminally fused GST-tag; GST (N); purchased Carna Biosciences, Inc; host or cells: baculovirus expression system
# Method: JAK kinase assay (HTRF, phosphorylation of TK substrate-biotin), TYK2
# Type: biochemical
# Conditions: HTRF assay, ATP at Km (13 μM); read-out: TYK2 kinase inhibitory activity (EC50)

// below: answered compounds
O=C(NC1CCCCC1)N1CCN(c2ncnc3[nH]ccc23)CC12CC2    100 to 500 nM
COCC(=O)N1CCN(c2ncnc3[nH]ccc23)CC12CC2    > 500 nM
O=C(OC1CCCC1)N1CCN(c2ncnc3[nH]ccc23)CC12CC2    < 100 nM
S=C(NCc1ccccc1)N1CCN(c2ncnc3[nH]ccc23)CC12CC2    100 to 500 nM

Below: the item to evaluate.
## Input Dear colleague, I am looking for the recorded EC50 of the following compound: Cc1ccc(S(=O)(=O)N2CCN(c3ncnc4[nH]ccc34)CC23CC3)cc1
## Output 100 to 500 nM

----------
# Tested Target: JAK2 (catalytic domain, His-tag) (Homo sapiens, UniProt O60674)
# Construct: All four purified enzymes contain only the catalytic domain; His (N); purchased Carna Biosciences, Inc; host or cells: baculovirus expression system
# Sequence (O60674 849-1124 limits assumed): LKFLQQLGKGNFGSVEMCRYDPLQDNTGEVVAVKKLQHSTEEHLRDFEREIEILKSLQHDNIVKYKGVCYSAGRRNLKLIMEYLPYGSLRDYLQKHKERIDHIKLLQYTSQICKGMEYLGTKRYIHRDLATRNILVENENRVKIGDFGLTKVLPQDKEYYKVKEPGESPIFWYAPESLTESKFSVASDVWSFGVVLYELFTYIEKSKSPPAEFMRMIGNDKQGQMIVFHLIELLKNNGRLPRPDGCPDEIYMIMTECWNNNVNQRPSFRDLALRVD
# Method: JAK kinase assay (HTRF, phosphorylation of TK substrate-biotin), JAK2
# Format: biochemical
# Conditions: ATP at Km (4 μM); read-out: JAK2 kinase inhibitory activity (EC50 indicator)
pEC50: −log10 of the molar value.
Attribute Measured: pEC50

Would you mind giving pEC50 for every molecule in the list below?
1. CN(C)S(=O)(=O)c1ccc(C(=O)N2CCN(c3ncnc4[nH]ccc34)CC23CC3)cc1 [Example 189]
2. O=C(c1ccccc1)N1[C@@H]2CC[C@H]1CN(c1ncnc3[nH]ccc13)C2 [Example 33]

## Output
["> 7.00", "> 7.00"]

Would you mind giving pEC50 for every molecule in the list below?
1. O=C(C1CCOC1)N1C2CCC1CN(c1ncnc3[nH]ccc13)C2 (centres unmarked) [Example 144]
2. N#Cc1ccc(C(=O)C(=O)N2C3CCC2CN(c2ncnc4[nH]ccc24)C3)cc1 [Example 128]
3. CC(C)CNC(=S)N1[C@@H]2CC[C@H]1CN(c1ncnc3[nH]ccc13)C2 [Example 10]
4. NS(=O)(=O)CCCC(=O)N1CCN(c2ncnc3[nH]ccc23)CC12CC2 [Example 143]
5. N#CC1(C(=O)N2CCN(c3ncnc4[nH]ccc34)CC23CC3)CCCC1 [Example 114]
6. O=C(c1ccc2cc[nH]c2c1)N1CCN(c2ncnc3[nH]ccc23)CC12CC2 [Example 36]

## Output
1: > 7.00; 2: > 7.00; 3: 6.30 to 7.00; 4: > 7.00; 5: > 7.00; 6: 6.30 to 7.00

----------
Would you mind telling me the reported EC50 of each entry?
# Tested Target: TYK2 (aa 871-1187, catalytic domain, GST-tag) (Homo sapiens, UniProt P29597)
# Construct: JAK1 (aa 850-1154) and TYK2 (aa 871-1187) are expressed with an N-terminally fused GST-tag; GST (N); purchased Carna Biosciences, Inc; host or cells: baculovirus expression system
# Sequence (P29597 871-1187): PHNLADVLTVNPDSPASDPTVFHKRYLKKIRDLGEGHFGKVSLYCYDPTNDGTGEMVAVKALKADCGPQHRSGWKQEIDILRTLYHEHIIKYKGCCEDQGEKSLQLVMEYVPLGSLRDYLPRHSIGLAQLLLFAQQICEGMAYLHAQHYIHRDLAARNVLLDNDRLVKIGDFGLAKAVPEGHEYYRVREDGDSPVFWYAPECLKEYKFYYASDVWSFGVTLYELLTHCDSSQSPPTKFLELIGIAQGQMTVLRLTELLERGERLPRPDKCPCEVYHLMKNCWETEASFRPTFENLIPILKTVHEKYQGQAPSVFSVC
# Method: JAK kinase assay (HTRF, phosphorylation of TK substrate-biotin), TYK2
# Type: biochemical
# Conditions: ATP at Km (13 μM); read-out: TYK2 kinase inhibitory activity (EC50 indicator)

Would you mind giving EC50 for every compound in the list below?
1. O=C([C@H]1CC[C@H](O)CC1)N1CCN(c2ncnc3[nH]ccc23)CC12CC2 [Example 158]
2. O=C(c1ccc(CO)cc1)N1CCN(c2ncnc3[nH]ccc23)CC12CC2 [Example 155]
3. Cc1ccc(C(=O)N2CCN(c3ncnc4[nH]ccc34)CC23CC3)cc1C(=O)Nc1cccc(C(F)(F)F)c1 [Example 41]
4. N#CCOc1ccc(CC(=O)N2CCN(c3ncnc4[nH]ccc34)CC23CC3)cc1 [Example 69]
5. NS(=O)(=O)CCC(=O)N1CCN(c2ncnc3[nH]ccc23)CC12CC2 [Example 17]
6. NS(=O)(=O)c1ccc2[nH]c(C(=O)N3CCN(c4ncnc5[nH]ccc45)CC34CC4)cc2c1 [Example 186]
7. NS(=O)(=O)c1ccc(/C=C/C(=O)N2CCN(c3ncnc4[nH]ccc34)CC23CC3)cc1 [Example 197]

## Output
1. > 500 nM
2. 100 to 500 nM
3. > 500 nM
4. > 500 nM
5. 100 to 500 nM
6. < 100 nM
7. < 100 nM

## Input Dear colleague, I am looking for the recorded EC50 of the following compound: N#Cc1ccc(C(=O)N2CCN(c3ncnc4[nH]ccc34)CC23CC3)cc1 [Example 15]
## Output 100 to 500 nM

Data origin: patent US9346809B2
